The origin of these recorded values is patent US20150342954A1.

ASSAY_TARGET: soluble guanylate cyclase (sGC) (Homo sapiens, UniProt Q02108+Q02153)
Construct: endogenously expressing soluble guanylate cyclase (sGC); endogenous in cells; host or cells: HEK293
ASSAY_OVERVIEW: sGC-HEK-cGMP assay (run with SNP incubation)
Format: cell-based
PROTOCOL_CONDITIONS: in the presence of 10 μM SNP; Table 3E; read-out: HEK assay EC50
EC50 by entry:

Solved entries:
O=c1[nH]c(-c2cc(-c3ccon3)n(Cc3ccccc3F)n2)nc(CF)c1F = 40 to 60 µM
Nc1nc(-c2cc(-c3ccon3)n(Cc3ccccc3F)n2)ncc1NC(=O)C1(N)CC1 = 60 to 100 µM
O=c1[nH]c(-c2cc(-c3ccon3)n(Cc3cccc(Cl)c3F)n2)ncc1F = 60 to 100 µM

Let us move to another entry and its EC50.
Give the reported EC50 for this compound. O=c1ccnc(-c2cc(-c3ccon3)n(Cc3cccc(Cl)c3F)n2)[nH]1
40 to 60 µM

###

ASSAY_TARGET: soluble guanylate cyclase (sGC) (Homo sapiens, UniProt Q02108+Q02153)
Construct: endogenously expressing soluble guanylate cyclase (sGC); endogenous in cells; host or cells: HEK293
Sequence (Q02153 1-619): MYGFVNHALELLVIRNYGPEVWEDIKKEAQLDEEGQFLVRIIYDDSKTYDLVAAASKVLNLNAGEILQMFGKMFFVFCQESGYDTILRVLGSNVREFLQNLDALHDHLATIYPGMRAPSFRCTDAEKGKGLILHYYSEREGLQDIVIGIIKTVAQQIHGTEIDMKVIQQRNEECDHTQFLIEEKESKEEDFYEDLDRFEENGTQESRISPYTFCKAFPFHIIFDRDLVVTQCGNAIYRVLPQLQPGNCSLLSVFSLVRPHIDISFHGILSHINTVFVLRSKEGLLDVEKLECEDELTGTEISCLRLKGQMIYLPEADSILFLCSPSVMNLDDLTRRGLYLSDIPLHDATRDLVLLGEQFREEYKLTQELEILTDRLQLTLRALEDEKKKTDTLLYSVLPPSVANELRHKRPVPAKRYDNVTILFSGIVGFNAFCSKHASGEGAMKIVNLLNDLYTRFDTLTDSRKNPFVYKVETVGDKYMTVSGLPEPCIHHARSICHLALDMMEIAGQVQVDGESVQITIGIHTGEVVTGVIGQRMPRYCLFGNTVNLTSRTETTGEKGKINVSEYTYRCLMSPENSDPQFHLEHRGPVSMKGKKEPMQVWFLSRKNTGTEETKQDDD
Sequence (Q02108 1-690): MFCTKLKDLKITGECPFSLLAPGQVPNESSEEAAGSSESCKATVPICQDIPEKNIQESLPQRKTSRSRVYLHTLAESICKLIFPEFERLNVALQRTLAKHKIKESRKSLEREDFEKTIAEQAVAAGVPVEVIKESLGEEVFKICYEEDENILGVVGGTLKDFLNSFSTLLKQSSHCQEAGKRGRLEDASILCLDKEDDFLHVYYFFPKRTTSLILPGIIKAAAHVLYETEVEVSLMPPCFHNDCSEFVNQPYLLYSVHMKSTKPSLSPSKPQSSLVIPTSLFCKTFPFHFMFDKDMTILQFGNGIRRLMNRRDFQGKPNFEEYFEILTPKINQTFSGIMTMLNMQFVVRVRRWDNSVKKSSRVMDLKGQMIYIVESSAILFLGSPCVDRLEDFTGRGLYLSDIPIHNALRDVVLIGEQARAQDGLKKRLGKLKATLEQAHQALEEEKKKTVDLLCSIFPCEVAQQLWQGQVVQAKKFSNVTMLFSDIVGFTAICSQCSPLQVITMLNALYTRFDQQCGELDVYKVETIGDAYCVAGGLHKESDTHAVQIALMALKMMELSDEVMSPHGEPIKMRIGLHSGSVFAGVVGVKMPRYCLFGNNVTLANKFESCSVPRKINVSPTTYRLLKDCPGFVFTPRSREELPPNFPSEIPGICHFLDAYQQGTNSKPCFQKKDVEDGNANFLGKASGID
ASSAY_OVERVIEW: sGC-HEK-cGMP assay (run with SNP incubation)
Type: cell-based
PROTOCOL_CONDITIONS: concentration that would elicit 10% of the Emax in the presence of 10 μM SNP; Table 3D
READOUT_NAME: HEK MEC-10

Oc1nc(-c2cc(-c3ccon3)n(Cc3ccccc3F)n2)ncc1-c1ccccn1 = C (0.1 to <1 μM)
Nc1nc(-c2cc(-c3ncco3)n(Cc3ccccc3F)n2)ncc1NC(=O)C1(F)CC1 = C (0.1 to <1 μM)
